Below: a set of entries, each annotated with reported IC50.
- target_or_test_system: Non-receptor tyrosine-protein kinase TYK2 (Homo sapiens, UniProt P29597)
- Sequence (P29597 whole entry, the tested form may be a part): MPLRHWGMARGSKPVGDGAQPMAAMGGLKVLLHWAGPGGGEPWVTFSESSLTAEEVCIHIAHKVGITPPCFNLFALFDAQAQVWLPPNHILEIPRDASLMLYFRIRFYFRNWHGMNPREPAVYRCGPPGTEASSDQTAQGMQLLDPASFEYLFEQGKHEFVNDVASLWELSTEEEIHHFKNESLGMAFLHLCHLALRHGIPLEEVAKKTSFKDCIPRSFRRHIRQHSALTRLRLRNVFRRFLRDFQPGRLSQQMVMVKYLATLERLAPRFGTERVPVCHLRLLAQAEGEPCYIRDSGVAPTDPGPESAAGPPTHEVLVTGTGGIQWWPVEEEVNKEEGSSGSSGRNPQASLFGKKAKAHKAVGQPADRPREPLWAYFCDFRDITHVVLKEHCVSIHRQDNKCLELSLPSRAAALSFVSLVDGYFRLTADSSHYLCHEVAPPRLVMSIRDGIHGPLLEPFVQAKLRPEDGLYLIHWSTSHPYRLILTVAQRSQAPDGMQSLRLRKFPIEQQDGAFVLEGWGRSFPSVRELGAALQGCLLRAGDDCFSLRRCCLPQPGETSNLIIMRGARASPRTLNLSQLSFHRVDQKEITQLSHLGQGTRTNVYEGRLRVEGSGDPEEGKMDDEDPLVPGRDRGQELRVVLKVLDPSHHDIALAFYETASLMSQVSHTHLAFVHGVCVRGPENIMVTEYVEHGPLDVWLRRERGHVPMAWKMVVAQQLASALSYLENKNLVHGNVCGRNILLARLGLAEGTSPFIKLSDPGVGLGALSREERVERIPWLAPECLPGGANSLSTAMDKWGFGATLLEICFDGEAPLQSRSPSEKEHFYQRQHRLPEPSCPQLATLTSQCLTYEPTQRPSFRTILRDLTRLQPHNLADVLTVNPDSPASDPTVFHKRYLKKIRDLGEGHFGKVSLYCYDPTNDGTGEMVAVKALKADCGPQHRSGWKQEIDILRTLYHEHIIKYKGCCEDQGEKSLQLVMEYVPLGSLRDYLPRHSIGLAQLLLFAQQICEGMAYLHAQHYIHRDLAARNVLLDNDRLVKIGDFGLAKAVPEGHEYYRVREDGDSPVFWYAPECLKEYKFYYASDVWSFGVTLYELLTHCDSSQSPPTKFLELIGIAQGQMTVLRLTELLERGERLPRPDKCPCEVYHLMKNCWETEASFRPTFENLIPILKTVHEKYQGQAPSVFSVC
- assay_overview: Inhibition of recombinant human N-terminal His-tagged TYK2 JH2 domain (577 to 870 residues) expressed in Sf9 cells using N-(2-(2-(2-((3-(5-acetamido-3-(3-(N,N-dimethylsulfamoyl)phenyl)-1H-pyrrolo[2,3-c]pyridin-1-yl)propyl)amino)-2-oxoethoxy)ethoxy)ethyl)-2',7'-difluoro-3',6'-dihydroxy-3-oxo-3H-spiro[isobenzofuran-1,9'-xanthene]-5-carboxamide trifluoroacetate as substrate incubated for 60 mins by TR-FRET assay
readout_name: IC50 (nM)

INSERT INTO results (structure_as_smiles, target_or_test_system, readout_name, value) VALUES
  ('CN(C)S(=O)(=O)c1cccc(-c2c[nH]c3cnc(NC(=O)C4CC4)cc23)c1', 'Non-receptor tyrosine-protein kinase TYK2 (Homo sapiens, UniProt P29597)', 'IC50', 480),
  ('CO[C@@]1(c2cccc(-c3cn(C)c4cnc(NC(N)=O)cc34)n2)CCOC1', 'Non-receptor tyrosine-protein kinase TYK2 (Homo sapiens, UniProt P29597)', 'IC50', 5),
  ('CO[C@]1(c2cccc(-c3cn(C)c4cnc(NC(C)=O)cc34)n2)CCOC1', 'Non-receptor tyrosine-protein kinase TYK2 (Homo sapiens, UniProt P29597)', 'IC50', 60),
  ('CC(=O)Nc1cc2c(-c3cccc(S(=O)(=O)N(C)C)c3)c[nH]c2cn1', 'Non-receptor tyrosine-protein kinase TYK2 (Homo sapiens, UniProt P29597)', 'IC50', 30),
  ('CC(=O)Nc1cc2c(-c3cccc(S(=O)(=O)N(C)C)c3)cn(C)c2cn1', 'Non-receptor tyrosine-protein kinase TYK2 (Homo sapiens, UniProt P29597)', 'IC50', 10),
  ('CC(=O)Nc1cc2c(-c3cccc(S(=O)(=O)C4COC4)n3)cn(C)c2cn1', 'Non-receptor tyrosine-protein kinase TYK2 (Homo sapiens, UniProt P29597)', 'IC50', 35),
  ('CCS(=O)(=O)c1cccc(-c2cn(C)c3cnc(NC(C)=O)cc23)n1', 'Non-receptor tyrosine-protein kinase TYK2 (Homo sapiens, UniProt P29597)', 'IC50', 9),
  ('CC(=O)Nc1cc2c(-c3cccc(S(=O)(=O)N(C)C)n3)cn(C)c2cn1', 'Non-receptor tyrosine-protein kinase TYK2 (Homo sapiens, UniProt P29597)', 'IC50', 4),
  ('CO[C@@]1(c2cccc(-c3cn(C)c4cnc(NC(C)=O)cc34)n2)CCOC1', 'Non-receptor tyrosine-protein kinase TYK2 (Homo sapiens, UniProt P29597)', 'IC50', 30);

###

- assay_overview: Half life in rat at 1 mg/kg, iv or 1 mg/kg,po
- Assay type: ADME, organism-based
- settings: in vivo
readout_name: half-life (min)

INSERT INTO results (structure_as_smiles, readout_name, value) VALUES
  ('COCc1cc(-c2cn(C3COC3)c3cnc(NC(C)=O)cc23)nc([C@]2(OC)CCOC2)c1', 'half-life', 36),
  ('CO[C@@]1(c2cc(OCC[C@@H](C)O)cc(-c3cn(C)c4cnc(NC(C)=O)cc34)n2)CCOC1', 'half-life', 66),
  ('CO[C@@]1(c2cc(O[C@@H](C)CCO)cc(-c3cn(C)c4cnc(NC(C)=O)cc34)n2)CCOC1', 'half-life', 30);

###

Below: a set of entries, each annotated with reported CL free.
- assay_overview: Metabolic stability in human hepatocytes assessed as intrinsic clearance for unbound fraction of drug
- Assay type: ADME, cell-based, Hepatocyte
readout_name: CL free (mL/min/kg)

INSERT INTO measurements (structure_as_smiles, units_label, value) VALUES
  ('CC(=O)Nc1cc2c(-c3cccc(S(=O)(=O)N(C)C)c3)c[nH]c2cn1', 'mL/min/kg', 113),
  ('CO[C@@]1(c2cc(OCC#N)cc(-c3cn(C)c4cnc(NC(C)=O)cc34)n2)CCOC1', 'mL/min/kg', 33),
  ('COCCOc1cc(-c2cn(C)c3cnc(NC(C)=O)cc23)nc([C@]2(OC)CCOC2)c1', 'mL/min/kg', 110),
  ('CO[C@@]1(c2cc(C#N)cc(-c3cn([C@@H]4CC4(F)F)c4cnc(NC(C)=O)cc34)n2)CCOC1', 'mL/min/kg', 68.3),
  ('CO[C@@]1(c2cccc(-c3cn(C)c4cnc(NC(C)=O)cc34)n2)CCOC1', 'mL/min/kg', 80);

###

Below: a set of entries, each annotated with reported CL free.
- assay_overview: Metabolic stability in human hepatocytes assessed as intrinsic clearance for unbound fraction of drug
- Assay type: ADME, cell-based, Hepatocyte
readout_name: CL free

INSERT INTO assay_data (structure_as_smiles, value) VALUES
  ('CC(=O)Nc1cc2c(-c3cccc(S(=O)(=O)N(C)C)c3)cn(C)c2cn1', '140 mL/min/kg'),
  ('COc1cc(-c2cn(C3COC3)c3cnc(NC(C)=O)cc23)nc([C@]2(OC)CCOC2)c1', '12.5 mL/min/kg'),
  ('CCS(=O)(=O)c1cccc(-c2cn(C)c3cnc(NC(C)=O)cc23)n1', '85 mL/min/kg'),
  ('CN(C)S(=O)(=O)c1cccc(-c2c[nH]c3cnc(NC(=O)C4CC4)cc23)c1', '765 mL/min/kg'),
  ('CC(=O)Nc1cc2c(-c3cccc(S(=O)(=O)N(C)C)n3)cn(C)c2cn1', '132 mL/min/kg'),
  ('CO[C@@]1(c2cc(OC(F)F)cc(-c3cn(C)c4cnc(NC(C)=O)cc34)n2)CCOC1', '102 mL/min/kg'),
  ('CO[C@@]1(c2cc(C(F)F)cc(-c3cn(C)c4cnc(NC(C)=O)cc34)n2)CCOC1', '31.7 mL/min/kg'),
  ('CO[C@]1(c2cccc(-c3cn(C)c4cnc(NC(C)=O)cc34)n2)CCOC1', '80 mL/min/kg'),
  ('CO[C@@]1(c2cccc(-c3cn(C)c4cnc(NC(N)=O)cc34)n2)CCOC1', '41.7 mL/min/kg'),
  ('CO[C@@]1(c2cc(O[C@@H](C)CCO)cc(-c3cn(C)c4cnc(NC(C)=O)cc34)n2)CCOC1', '102 mL/min/kg'),
  ('COCc1cc(-c2cn(C3COC3)c3cnc(NC(C)=O)cc23)nc([C@]2(OC)CCOC2)c1', '31.7 mL/min/kg');

###

- assay_overview: Half life in dog at 1 mg/kg, iv
- Format: ADME, organism-based, Canis lupus familiaris
- settings: in vivo
readout_name: half-life (h)

INSERT INTO assay_data (structure_as_smiles, value) VALUES
  ('COCc1cc(-c2cn(C3COC3)c3cnc(NC(C)=O)cc23)nc([C@]2(OC)CCOC2)c1', 4.5);

###

- target_or_test_system: CYP3A4 (Homo sapiens, UniProt P08684)
- Sequence (P08684 whole entry): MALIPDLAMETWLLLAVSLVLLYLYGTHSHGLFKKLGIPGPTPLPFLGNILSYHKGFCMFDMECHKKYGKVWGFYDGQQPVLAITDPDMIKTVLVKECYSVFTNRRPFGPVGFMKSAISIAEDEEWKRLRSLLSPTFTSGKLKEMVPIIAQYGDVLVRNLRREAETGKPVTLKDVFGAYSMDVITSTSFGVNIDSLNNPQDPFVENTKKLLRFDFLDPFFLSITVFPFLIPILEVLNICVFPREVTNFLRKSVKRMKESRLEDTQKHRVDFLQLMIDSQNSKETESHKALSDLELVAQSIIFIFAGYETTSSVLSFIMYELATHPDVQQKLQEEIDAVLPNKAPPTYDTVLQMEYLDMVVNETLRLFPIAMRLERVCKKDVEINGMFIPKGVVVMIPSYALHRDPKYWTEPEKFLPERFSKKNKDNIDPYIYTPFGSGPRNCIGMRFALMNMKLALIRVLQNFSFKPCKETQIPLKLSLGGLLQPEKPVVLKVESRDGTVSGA
- assay_overview: Time dependent inhibition of CYP3A4 in human liver microsomes using midazolam as substrate assessed as 1'-OH midazolam metabolite formation at 50 uM preincubated for 30 mins in presence of NADPH followed by substrate addition and measured after 15 mins by HPLC-MS/MS analysis relative to control
- Type: ADME, Microsome
- settings: probe midazolam, time 45 min, read-out: TDI
readout_name: inhibition at 0.25 h, 50 µM (%)

INSERT INTO assay_data (structure_as_smiles, value) VALUES
  ('COCc1cc(-c2cn(C3COC3)c3cnc(NC(C)=O)cc23)nc([C@]2(OC)CCOC2)c1', 22),
  ('CO[C@@]1(c2cc(O[C@@H](C)CCO)cc(-c3cn(C)c4cnc(NC(C)=O)cc34)n2)CCOC1', 21),
  ('CO[C@@]1(c2cc(C#N)cc(-c3cn([C@@H]4CC4(F)F)c4cnc(NC(C)=O)cc34)n2)CCOC1', 20),
  ('CO[C@@]1(c2cc(C(F)F)cc(-c3cn(C)c4cnc(NC(C)=O)cc34)n2)CCOC1', 49),
  ('COc1cc(-c2cn(C3COC3)c3cnc(NC(C)=O)cc23)nc([C@]2(OC)CCOC2)c1', 43),
  ('CO[C@@]1(c2cc(OC(F)F)cc(-c3cn(C)c4cnc(NC(C)=O)cc34)n2)CCOC1', 53),
  ('CO[C@@]1(c2cc(OCC[C@@H](C)O)cc(-c3cn(C)c4cnc(NC(C)=O)cc34)n2)CCOC1', 8),
  ('COCCOc1cc(-c2cn(C)c3cnc(NC(C)=O)cc23)nc([C@]2(OC)CCOC2)c1', 6);

###

- assay_overview: Half life in dog at 0.5 mg/kg, iv
- Format: ADME, organism-based, Canis lupus familiaris
- settings: in vivo
readout_name: half-life (h)

INSERT INTO results (structure_as_smiles, readout_name, value) VALUES
  ('CO[C@@]1(c2cc(O[C@@H](C)CCO)cc(-c3cn(C)c4cnc(NC(C)=O)cc34)n2)CCOC1', 'half-life', 3);
